method.description: Restrictive medium S. cerevisiae growth inhibition, OD615, pilot screen of yeast lifespan reduction project, restrictive growth control (AID 706);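 also: modified DeaD lifespan yeast strain shifted to restrictive glucose medium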
test.context: OD615, 48 h, at 10 µM, stronger effect = higher value
readout.label: growth inhibition (%)
Response body: numeric value in %, unit text excluded.

Study these solved cases before continuing.
>  <compound>
CC(=O)N1CCN(CCN=CC2=C(O)CC(c3ccc(Cl)cc3)CC2=O)CC1 (stereo not given)

>  <growth inhibition / %>
-3.19

$$$$
>  <compound>
O=C1c2oc3ccc(F)cc3c(=O)c2C(c2ccc(F)cc2)N1CCCN1CCOCC1 (stereo not given)

>  <growth inhibition / %>
6.59

$$$$
>  <compound>
CCCCCCC1C(C#N)=C(N)OC2=C1C(=O)CCC2 (stereo not given)

>  <growth inhibition / %>
-14.4

$$$$
>  <compound>
Cc1nnc(SCCn2c(N3CCN(c4ccccc4)CC3)nc3c2c(=O)n(C)c(=O)n3C)s1

>  <growth inhibition / %>
-18.3

$$$$

Problem: Bench note: what growth inhibition did O=C1c2oc3ccccc3c(=O)c2C(c2cccc(O)c2)N1c1ccccn1 (stereo not given) show?
Result: -6.25

* * *

method.description: Restrictive medium S. cerevisiae growth inhibition, OD615, pilot screen of yeast lifespan reduction project, restrictive growth control (AID 706);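 also: modified DeaD lifespan yeast strain shifted to restrictive glucose medium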
test.context: OD615, 48 h, at 10 µM, stronger effect = higher value
The source made the active and inactive calls.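 How the source made its calls: active means growth inhibition above a set limit, 3 SD over mean compound inhibition, in both replicates (cut at about 43% in these data); inconclusive means above the limit in only one replicate; inactive means at or below the limit in both replicates.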
Property: growth inhibition; scope: individual molecules

>  <molecule>
CN(C)CCNC(=O)c1ccc(CS(=O)(=O)c2ccc(Br)cc2)o1

>  <reported.result>
4.8% (inactive)

$$$$
>  <molecule>
CC1=C(C#N)C2C(/C1=N/O)C2(C)C (stereo unspecified)

>  <reported.result>
-6.87% (inactive)

$$$$
>  <molecule>
CCOC(=O)Cc1csc(NC(=O)CN(C)S(=O)(=O)c2cccc3cccnc23)n1

>  <reported.result>
-7.54% (inactive)

$$$$

Problem: Bench note: what growth inhibition did C=CCSC1=NC(N)=C(C#N)C2(CCCCC2)C1C(N)=O (stereo unspecified) show?
Result: 2.22% (inactive)

Problem: Bench note: what growth inhibition did O=C(NCc1ccco1)C1CCCN(S(=O)(=O)c2cccc3cccnc23)C1 (stereo unspecified) show?
Result: -8.38% (inactive)

Problem: Bench note: what growth inhibition did O=C(NCc1ccccc1)c1ccc(/C=N/O)nc1 show?
Result: -5.67% (inactive)

Problem: Bench note: what growth inhibition did COc1ccc(C2C(C(=O)Nc3cccc(C)n3)c3ccccc3C(=O)N2C)cc1 (stereo unspecified) show?
Result: -6.23% (inactive)

Problem: Bench note: what growth inhibition did O=S(=O)(Cc1ccccc1)N1CCn2c(nc3ccccc32)C1 show?
Result: -0.745% (inactive)

* * *

method.description: Restrictive medium S. cerevisiae growth inhibition, OD615, pilot screen of yeast lifespan reduction project, restrictive growth control (AID 706);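 also: modified DeaD lifespan yeast strain shifted to restrictive glucose medium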
test.context: OD615, 48 h, at 10 µM, stronger effect = higher value
Property: growth inhibition; scope: individual compounds
Response body: numeric value in %, unit text excluded.

Study these solved cases before continuing.
>  <compound>
CCN1C(=O)c2ccccc2Sc2ccc(C(=O)NCCN3CCOCC3)cc21

>  <quantity.unit>
%

>  <reported.result>
-7.4

$$$$
>  <compound>
COc1cccc(C2NC(=O)NC(O)(C(F)(F)F)C2C(=O)c2cccnc2)c1OC (stereo unspecified)

>  <quantity.unit>
%

>  <reported.result>
-2.12

$$$$
>  <compound>
CCN1CCN(c2cc(C)c3cc(NC(=O)c4cnccn4)ccc3n2)CC1

>  <quantity.unit>
%

>  <reported.result>
1.29

$$$$
>  <compound>
OCCOCCNc1ncnc2nc[nH]c12

>  <quantity.unit>
%

>  <reported.result>
-0.86

$$$$
>  <compound>
COc1ccc2c(C)cc(=O)oc2c1C

>  <quantity.unit>
%

>  <reported.result>
-2.73

$$$$

As a next step, examine the compound that follows.
Problem: Bench note: what growth inhibition did O=C(NCCCNCc1ccccc1)c1ccc(/C=N/O)nc1 show?
Result: -12.5
